Examples of molecules with documented Activity follow.
Measured Target: Metabotropic glutamate receptor 4 (Homo sapiens, UniProt Q14833)
Sequence (Q14833 whole entry): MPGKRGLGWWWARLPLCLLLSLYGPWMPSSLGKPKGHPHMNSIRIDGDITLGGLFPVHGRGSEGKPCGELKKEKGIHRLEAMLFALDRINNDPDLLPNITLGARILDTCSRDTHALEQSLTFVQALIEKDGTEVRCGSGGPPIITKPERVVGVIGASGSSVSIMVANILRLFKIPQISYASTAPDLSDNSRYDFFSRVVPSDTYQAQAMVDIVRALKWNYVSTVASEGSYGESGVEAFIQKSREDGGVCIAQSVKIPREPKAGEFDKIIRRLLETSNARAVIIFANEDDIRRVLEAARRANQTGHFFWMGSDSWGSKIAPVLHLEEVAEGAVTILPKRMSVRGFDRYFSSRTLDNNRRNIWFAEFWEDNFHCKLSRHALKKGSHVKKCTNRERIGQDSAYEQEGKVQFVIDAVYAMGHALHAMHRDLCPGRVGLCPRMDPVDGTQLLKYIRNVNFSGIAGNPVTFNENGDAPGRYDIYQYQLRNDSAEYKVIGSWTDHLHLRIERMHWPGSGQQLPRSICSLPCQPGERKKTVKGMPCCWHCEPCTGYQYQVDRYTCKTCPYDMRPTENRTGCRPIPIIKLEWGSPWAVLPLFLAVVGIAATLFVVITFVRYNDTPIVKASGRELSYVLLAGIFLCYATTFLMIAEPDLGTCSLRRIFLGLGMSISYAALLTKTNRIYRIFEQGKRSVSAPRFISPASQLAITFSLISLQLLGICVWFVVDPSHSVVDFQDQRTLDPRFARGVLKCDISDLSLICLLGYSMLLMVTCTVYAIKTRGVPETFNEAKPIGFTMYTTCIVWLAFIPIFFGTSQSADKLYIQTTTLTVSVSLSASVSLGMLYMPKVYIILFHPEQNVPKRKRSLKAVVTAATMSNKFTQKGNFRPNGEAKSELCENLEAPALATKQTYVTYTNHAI
Assay Notes: Positive allosteric modulation of human mGlu4 receptor expressed in CHO cells coexpressing Gqi5 assessed as potentiation of glutamate-induced calcium mobilization relative to (-)-PHCCC
Type: functional, cell-based
Quick reminder: number only, in %, skip the unit.

Molecule	Parameter	Readout Value
O=C(Nc1ccc(N2C(=O)CC(c3ccccc3)C2=O)c(Cl)c1)c1ccccn1 (racemic)	Activity	117
O=C(Nc1ccc(N2S(=O)(=O)c3ccccc3S2(=O)=O)cc1)c1ccccn1	Activity	99.7
O=C(Nc1ccc(N2C(=O)[C@@H]3[C@H](C2=O)[C@@H]2C=C[C@H]3C2)c(Cl)c1)c1ccccn1 (mixture of isomers)	Activity	122

// Activity value for `O=C(Nc1ccccn1)c1ccc(N2S(=O)(=O)c3ccccc3S2(=O)=O)cc1` : 30.7

Form: molecule = `CC1(C)[C@@H]2C(=O)N(c3ccc(NC(=O)c4ccccn4)cc3Cl)C(=O)[C@@H]21` ; Activity = 100
